Overview of recorded TGI for various compounds
Tested on: MDA-MB-435
Experiment: NCI tumour cell line growth inhibition, 48 h
Result Type: TGI (µM)

Compound: COc1ccc(-c2c3c(n(C4OC(COC(C)=O)C(OC(C)=O)C(OC(C)=O)C4OC(C)=O)c(=S)c2C#N)CCCC3)cc1 (stereo not given)
Result Type: TGI
Unit Name: µM
Value Operator: >
Number: 100

Compound: CSc1c(C#N)c(=O)n(N)c2n[nH]c(C)c12
Result Type: TGI
Unit Name: µM
Value Operator: >
Number: 100

Compound: COc1ccc2c(c1)cn1c3ccc(OC)cc3[nH]c(=O)c21
Result Type: TGI
Unit Name: µM
Value Operator: =
Number: 0.0116

Compound: NC(CSC(c1ccccc1)(c1ccccc1)c1ccc(Br)cc1)C(=O)O (stereo not given)
Result Type: TGI
Unit Name: µM
Value Operator: =
Number: 0.199

Compound: N=C(N)c1ccc(-c2ccc(-c3ccccc3)o2)o1
Result Type: TGI
Unit Name: µM
Value Operator: =
Number: 2.39

Compound: Cc1cnc2n(c1=O)Cc1ccccc1CO2
Result Type: TGI
Unit Name: µM
Value Operator: >
Number: 72.1

Compound: O=C(O)Cc1ccc(-n2nnc3c(=O)[nH][nH]c(=O)c32)cc1
Result Type: TGI
Unit Name: µM
Value Operator: >
Number: 100

Compound: CCCCCCCCCCCC(=O)[O][Sn]([CH2]CCC)([CH2]CCC)[CH2]CCC
Result Type: TGI
Unit Name: µM
Value Operator: =
Number: 0.15

Compound: Cc1cn(C2CC(/[N+]([O-])=N\Nc3ccc([N+](=O)[O-])cc3)C(CO)O2)c(=O)[nH]c1=O (stereo not given)
Result Type: TGI
Unit Name: µM
Value Operator: >
Number: 100

Compound: CC(=O)Nc1ccc2cc3c(nc2n1)c1cccnc1n3S(=O)(=O)c1ccccc1
Result Type: TGI
Unit Name: µM
Value Operator: >
Number: 100

---

Tested on: SK-MEL-5 melanoma
Assay: NCI tumour cell line growth inhibition, 48 h; in the data active = GI50 below about 0.43 µM; inactive = the rest
Possible outcomes: active, inactive

Compound: O=C(/C=C/c1ccco1)c1cccc(Nc2nc(Nc3ccccc3)nc(Nc3ccccc3)n2)c1
Category: inactive
--
Compound: Nc1nc(-c2ccccc2Cl)cc(-c2ccc(Cl)cc2Cl)n1
Category: inactive
--
Compound: O=c1c(Br)ccc(Br)cc1Br
Category: inactive
--
Compound: COc1cc(-c2cc(C(=O)N3CCN(C(=O)c4ccccc4NCc4cccs4)CC3)nc3cc(-c4ccccc4)nn23)cc(OC)c1OC
Category: inactive
--
Compound: CN(Cc1cccc(Cl)c1)c1ccc(CO)c(Cl)c1
Category: inactive
--
Compound: c1ccc(Oc2cnc3ccccc3n2)cc1
Category: inactive
--
Compound: COc1ccc(-c2nn(C(=O)c3cc(OC)c(OC)c(OC)c3)c3cc(N)ccc23)cc1
Category: active
--
Compound: CCOc1ccc(-n2cc(-c3ccc(N(C)C)cc3)[n+]3c2CCCCC3)cc1
Category: active
--
Compound: COc1ccc(S(=O)(=O)Nc2c(/C=C\c3cc(OC)c(OC)c(OC)c3)ccc(OC)c2O)cc1OC
Category: active
--
Compound: Cc1nc(N(C)C)nc(-c2cccc(-c3ccn(CCN(C)C)n3)c2)c1C
Category: inactive
--
Compound: NC(CSC(c1ccccc1)(c1ccccc1)c1ccc(Br)cc1)C(=O)O (stereo not given)
Category: active
--
Compound: Nc1ncnc2c1c(-c1ccc(Oc3ccccc3)cc1)nn2C[C@H]1SSC[C@H]1O
Category: active
--
Compound: OC(c1cc2c(Cl)cc(Cl)cc2c2cc(C(F)(F)F)ccc12)C1CCCCN1 (stereo not given)
Category: inactive
--
Compound: COc1ccc(/C=N/C2=C(C#N)C(c3ccccc3)c3ccc4ccccc4c3O2)cc1 (stereo not given)
Category: active
--
Compound: O=C(Nc1ccc(-n2cc(-c3ccncc3)c(-c3ccc(Cl)c(O)c3)n2)cc1)c1ccc(Cl)c(C(F)(F)F)c1
Category: inactive
--
Compound: Nc1c(C(=O)Nc2cccc3ccccc23)sc2nc3c(cc12)CCCCCC3
Category: inactive
--
Compound: C=CCOc1ccc2c(c1)CC[C@@H]1[C@@H]2CC[C@]2(C)C(=O)/C(=N/O)C[C@@H]12
Category: inactive
--
Compound: COc1cc2c(cc1OC)-c1c(c3ccc([N+](=O)[O-])cc3c(=O)n1CCCBr)C2=O
Category: inactive
--
Compound: O=C1COCCN1c1ccc(NCc2cn(Cc3ccc(F)cc3)c3ccccc23)cc1
Category: inactive
--
Compound: COc1cc(-c2nc3cc(Cl)c(Cl)cc3[nH]2)ccc1OCC(=O)N=Nc1c(O)[nH]c2ccccc12
Category: inactive

Just for reference, PubChem BioAssay (NCI) is where these values come from.
